This collection of values is drawn from patent US10093670B2.

# Target desc: human AMPK α1β1γ1 enzyme (Homo sapiens, UniProt Q13131+Q9Y478)
# Construct: purchased Carna Biosciences, Inc
# Sequence (Q13131 10-559 limits assumed): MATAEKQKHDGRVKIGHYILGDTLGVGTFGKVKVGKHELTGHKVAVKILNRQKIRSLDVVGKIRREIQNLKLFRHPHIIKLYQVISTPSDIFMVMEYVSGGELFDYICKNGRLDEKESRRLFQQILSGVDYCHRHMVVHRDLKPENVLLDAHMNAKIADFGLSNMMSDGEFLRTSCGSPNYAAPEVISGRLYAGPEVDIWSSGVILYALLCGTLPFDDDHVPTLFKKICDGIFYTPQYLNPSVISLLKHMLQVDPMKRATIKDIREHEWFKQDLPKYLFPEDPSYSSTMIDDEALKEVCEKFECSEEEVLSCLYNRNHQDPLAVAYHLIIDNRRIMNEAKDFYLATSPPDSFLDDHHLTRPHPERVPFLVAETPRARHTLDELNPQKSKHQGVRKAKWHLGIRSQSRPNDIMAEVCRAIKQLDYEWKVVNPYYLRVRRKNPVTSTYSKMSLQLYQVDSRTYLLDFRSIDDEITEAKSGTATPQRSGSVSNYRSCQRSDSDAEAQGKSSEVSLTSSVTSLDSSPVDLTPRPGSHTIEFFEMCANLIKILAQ
# Sequence (Q9Y478 whole entry): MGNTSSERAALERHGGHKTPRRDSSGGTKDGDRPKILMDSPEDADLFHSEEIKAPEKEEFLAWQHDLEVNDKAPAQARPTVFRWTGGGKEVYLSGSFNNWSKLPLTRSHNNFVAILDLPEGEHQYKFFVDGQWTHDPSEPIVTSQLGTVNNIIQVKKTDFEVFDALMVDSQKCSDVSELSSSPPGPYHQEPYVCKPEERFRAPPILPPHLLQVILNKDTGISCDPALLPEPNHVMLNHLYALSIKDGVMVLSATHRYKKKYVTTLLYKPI
# Sequence (P54619 whole entry partner): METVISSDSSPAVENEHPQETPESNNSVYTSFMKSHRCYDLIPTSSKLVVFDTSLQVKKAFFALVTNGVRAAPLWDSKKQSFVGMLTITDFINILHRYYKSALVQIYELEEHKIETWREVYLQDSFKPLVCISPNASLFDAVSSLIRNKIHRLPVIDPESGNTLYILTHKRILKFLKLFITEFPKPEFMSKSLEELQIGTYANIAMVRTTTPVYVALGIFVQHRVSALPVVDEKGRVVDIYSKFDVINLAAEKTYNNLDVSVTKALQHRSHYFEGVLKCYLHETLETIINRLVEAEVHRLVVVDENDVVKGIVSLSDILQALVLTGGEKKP
# Assay comment: Evaluation of AMPK activator, Test Example 1 (mobility-shift kinase assay, FL-Peptide 7)
# Type: biochemical
# Details: human AMPK α1β1γ1, 25° C., 2 hours, 0.2 mM ATP final
Observed property: EC150 (compound concentration showing 150% relative to the control (100%)) (nM)
Please state the figure in nM; there is no need to write the unit.

Examples from the recorded data:
- Compound: "CC(C)(C(=O)O)[C@H]1CC[C@H](Oc2nc3nc(-c4ccc(-c5ccc(C(=O)N6CCOCC6)cc5)cc4)c(Cl)cc3[nH]2)CC1 [Compound I-3-108]"
  Number: 8.2
- Compound: "CN(CCO)C(=O)N1CCC(Oc2nc3nc(-c4ccc(C5=CCC(C(=O)O)CC5)cc4)c(Cl)cc3[nH]2)CC1 (stereo not shown) [Compound I-3-2]"
  Number: 1.4
- Compound: "CC(C)(Sc1nc2nc(-c3ccc(N4CCOCC4)cc3)c(Cl)cc2[nH]1)C(=O)O [Compound I-1-57]"
  Number: 140

// query Please give the documented EC150 (compound concentration showing 150% relative to the control (100%)) of CC(=O)NC1CC=C(c2ccc(-c3nc4nc(O[C@H]5CC[C@H](CC(=O)O)CC5)[nH]c4cc3Cl)cc2)CC1 (stereo partly shown) [Compound I-2-76]
// result 14
